- measurementTarget: Thrombin from human plasma (Homo sapiens)
- Construct: Thrombin, a multifunctional serine protease generated by prothrombin cleavage; purchased Sigma-Aldrich Chemical Co. (St. Louis, MO, USA) T6884; host or cells: human plasma
- procedureSummary: SPR binding affinity measurement (Biacore T200, thrombin-immobilized CM5 chip)
measurementType: Kd

[
  {
    "compound": "O=C(O)c1cc(O)c(O)c(O)c1 [Gallic acid]",
    "measurementType": "Kd",
    "testValue": "> 200 µM"
  }
]
